Tested on: human Fab of κ-type
protocol.description: STD-NMR binding test (saturation transfer difference NMR screening)
Parameters: key: 0 no; 1 weak; 2 strong signal
condition.notes: 500 nM protein; 0.5 mM ligand
Recorded NMR signal, conc 1 for the following molecules
metric: NMR signal, conc 1

{"columns": ["molecule", "reported.measurement"],
 "data": [
  ["Clc1ccc(OCc2noc(CSc3ccccn3)n2)cc1", 2],
  ["O=Cc1cccc(C(F)(F)F)c1Cl", 1],
  ["S=C(Oc1ccccn1)c1csc(C2COc3ccccc3O2)n1 (stereo not drawn)", 0],
  ["OC(CNCc1ccccc1)C(F)(F)F (stereo not drawn)", 1],
  ["O=C1CN(c2ccccc2)C(=O)N1c1ccccc1", 2],
  ["N#CCc1ccc(C(=O)c2ccccc2F)s1", 2],
  ["CCOC(=O)c1c[nH]c2ccccc2c1=O", 0],
  ["OCC(Oc1ccccc1)c1ccccc1 (stereo not drawn)", 2],
  ["Sc1nnc(-c2csc(-c3ccccc3)n2)o1", 1]
]}

Recorded values, source patent US7645903B2.
